Tested on: Clostridium sporogenes DSM 1664
Experiment: growth (OD595) fold change vs plate DMSO controls (fold change (ratio)); higher = more growth
Conditions: incubation time: 27 h, anaerobic, 37 °C
Where a name gives a salt, the structure may show the parent alone.
YES means recorded growth is 1 or above; NO means it is below 1.

These solved cases illustrate the format of a correct answer.
Reported growth at or above 1? CCCCN1CCCCC1C(=O)Nc1c(C)cccc1C (centres undefined) [Bupivacaine hydrochloride] (20 µM)
YES

Record: CC1COc2ccccc2N1C(=O)C(Cl)Cl (centres undefined) (20 µM)
NO

Also check C[C@@H]1CN(c2c(F)c(N)c3c(=O)c(C(=O)O)cn(C4CC4)c3c2F)C[C@H](C)N1 [Sparfloxacin] (20 µM)
NO

Now this one: CC(=O)N[C@@H](CS)C(=O)O [Acetylcysteine] (20 µM)
NO

What would you report for Oc1ccccc1O [Catechol] (20 µM) ?
YES

Cool, now Clc1ccc(CCC(Cn2ccnc2)Sc2c(Cl)cccc2Cl)cc1 (centres undefined) [Butoconazole nitrate] (20 µM)
YES

Query CC(C)(C)NC[C@@H](O)COc1cccc2c1CCCC2=O [(+) Levobunolol hydrochloride] (20 µM) next
YES

Likewise for O=C1NCC2(CCN(CCc3ccccc3)CC2)O1 [Fenspiride hydrochloride] (20 µM) ?
YES

---
Kindly determine if growth recorded for O=C(Oc1ccccc1)n1c(C(F)(F)F)nc2cc(Cl)c(Cl)cc21 (20 µM) is above or exactly 1.
NO

----------
Test system: Escherichia coli IAI1
Assay: fold change of Putrescine concentration vs plate DMSO controls (fold change (ratio)); higher = more amine produced, active = hit call of the paper (significant change in both replicates, either direction)
Settings: incubation time: 27 h, anaerobic, 37 °C
Counter-ions that a name gives are not always drawn.
readout-name: fold change of Putrescine concentration
Could you keep your reply to the number by itself?

I am curious: what fold change of Putrescine concentration value has been reported for OCCN1CCN(CC/C=C2/c3ccccc3Sc3ccc(C(F)(F)F)cc32)CC1 [Flupentixol dihydrochloride cis-(Z)] (20 µM) ?
1.02

Again, but for CCCCc1ncc(/C=C(\Cc2cccs2)C(=O)O)n1Cc1ccc(C(=O)O)cc1 [Eprosartan mesylate] (20 µM)
0.975

Could you do the same for CO[C@H]1/C=C/O[C@@]2(C)Oc3c(C)c(O)c4c(O)c(c(/C=N/N5CCN(C6CCCC6)CC5)c(O)c4c3C2=O)NC(=O)/C(C)=C\C=C\[C@H](C)[C@H](O)[C@@H](C)[C@@H](O)[C@@H](C)[C@H](OC(C)=O)[C@@H]1C [Rifapentine] (20 µM) , please?
0.829

More entries:
Quick one: fold change of Putrescine concentration for CO/N=C(\C(=O)N[C@@H]1C(=O)N2C(C(=O)O)=C(C[N+]3(C)CCCC3)CS[C@H]12)c1csc(N)n1 [Cefepime hydrochloride] (20 µM) ?
0.285

Then this compound: CO/N=C(\C(=O)N[C@@H]1C(=O)N2C(C(=O)[O-])=C(C[n+]3cccc4c3CCC4)CS[C@H]12)c1csc(N)n1 [Cefpirome sulfate] (20 µM)
0.213

----------
Listed next: entries and their corresponding fold change of Cadaverine concentration.
Tested on: Klebsiella aerogenes DSM 30053
Assay: fold change of Cadaverine concentration vs plate DMSO controls (fold change (ratio)); higher = more amine produced, active = hit call of the paper (significant change in both replicates, either direction)
Conditions: incubation time: 27 h, anaerobic, 37 °C
Where a name gives a salt, the structure may show the parent alone.
Give only the figure.

Study these solved cases before continuing.
Could you share which fold change of Cadaverine concentration value was measured for O=C1Nc2ccc(Cl)cc2[C@@](C#CC2CC2)(C(F)(F)F)O1 [Efavirenz] (20 µM) ?
0.997

Lookup CC(C)(C(=O)c1cccnc1)c1cccnc1 [Metyrapone] (20 µM)
1

// repeat for CC=CC(=O)N(CC)c1ccccc1C [Crotamiton] (20 µM) and report
1.01

Another compound to check: Cc1ccc(C(C)NC(=O)[C@@H](NC(=O)OC(C)C)C(C)C)cc1 (some centres undefined) (20 µM)
1.02

Quick one: Cc1c(-c2ccccc2)oc2c(C(=O)OCCN3CCCCC3)cccc2c1=O [Flavoxate hydrochloride] (20 µM)
1

Continuing:
Using the record for OC(CNCC(O)C1CCc2cc(F)ccc2O1)C1CCc2cc(F)ccc2O1 (centres undefined) [Nebivolol hydrochloride] (20 µM) , report its fold change of Cadaverine concentration.
0.998

Now consider CC(C(=O)O)c1ccc(C(=O)c2ccccc2)s1 (centres undefined) [Tiaprofenic acid] (20 µM) .
0.988

Queued: O=C(N/N=C/c1ccc([N+](=O)[O-])o1)c1ccc(O)cc1 [Nifuroxazide] (20 µM)
1.02

For CCOCC(O)COc1ccc(NC(=O)CC[S+](C)C)cc1 (centres undefined) [Suplatast Tosylate] (20 µM) then?
0.991
